# experimental.details: Ketoconazole concentration in plasma and ocular tissues after single topical ocular instillation
# Type: in vivo, Sprague Dawley rats
# experimental.conditions: Sprague Dawley, rat, retina, topical, 300 μg per rat, rat retina, mean of left and right eye, 30 min post-dose; read-out: mean concentration in retina
metric.name: concentration at 30 min (ng/g)
Write it as a number; the unit ng/g goes unstated.

[in] Request the reported concentration at 30 min associated with CC(=O)N1CCN(c2ccc(OCC3COC(Cn4ccnc4)(c4ccc(Cl)cc4Cl)O3)cc2)CC1 (stereo not shown)
[out] 1470

* * *

# experimental.details: Ketoconazole concentration in plasma and ocular tissues after single topical ocular instillation
# Format: in vivo, Sprague Dawley rats
# experimental.conditions: Sprague Dawley, rat, retina, topical, 300 μg per rat, mean ketoconazole concentration in retina, rat retina, mean of left and right eye, 120 min post-dose
metric.name: concentration at 120 min (ng/g)
Write it as a number; the unit ng/g goes unstated.

[in] Request the reported concentration at 120 min associated with CC(=O)N1CCN(c2ccc(OCC3COC(Cn4ccnc4)(c4ccc(Cl)cc4Cl)O3)cc2)CC1 (stereo not shown)
[out] 94.4
